Target: T1, mouse Claudin-6 (CLDN6) (mouse, UniProt Q9Z262 1-219)
T1 construct: whole, on cells; GFP fusion on engineered HEK293T cells; also called Mouse CLDN6; murine CLDN6
T1 sequence (looked up): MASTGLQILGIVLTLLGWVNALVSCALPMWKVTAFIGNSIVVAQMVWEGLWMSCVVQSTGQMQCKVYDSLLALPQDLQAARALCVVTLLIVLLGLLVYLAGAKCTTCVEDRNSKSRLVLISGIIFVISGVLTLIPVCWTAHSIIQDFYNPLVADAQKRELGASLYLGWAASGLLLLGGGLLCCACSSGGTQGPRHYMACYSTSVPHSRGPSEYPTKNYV
Assay: FACS titration of labelled mAb on HEK293T mouse CLDN6-mGFP cells
quantityKind: EC50

Prompt: For the binder AB2 (antibody, V domains shown, full-length IgG (ExpiCHO)) VH: EVKLEESGGGLVQPGGSMKLSCVASGFTFSDYWMNWVRQSPEKGLEWVAQIRLKSDNYATHYAESVKGRFTISRDDSKRSVYLQMNNLRAEDTGTYYCNDGPPSGCWGQGTTLIVSS VL: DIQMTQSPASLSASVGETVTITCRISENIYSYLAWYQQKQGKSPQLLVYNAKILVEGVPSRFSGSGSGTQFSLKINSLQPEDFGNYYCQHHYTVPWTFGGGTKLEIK , report EC50.
Response: ≥ 5 µM
